ASSAY EXPLANATION: Stability of peptides in simulated intestinal fluid (pH 7.5)
Type: in vitro ADME
TEST CONTEXT: simulated intestinal fluid, 24 h, 2 μM, pH 7.5
Where a SMILES comes first, the peptide text is derived from it. [ ]: non-standard residue; d: D form. ξ: configuration not given here. ξαMePhe(2,6-F2) = CC(N)(Cc1c(F)cccc1F)C(=O)O; ξαMePhe(2-F) = CC(N)(Cc1ccccc1F)C(=O)O; hArg = N=C(N)NCCCC[C@H](N)C(=O)O; ξαMeF = CC(N)(Cc1ccccc1)C(=O)O; Nle = CCCC[C@H](N)C(=O)O; ξαMeP = CC1(C(=O)O)CCCN1; Ac5c = NC1(C(=O)O)CCCC1; Aib = CC(C)(N)C(=O)O
MEASURED METRIC: % degradation of peptides in 24 h when incubated with simulated intestinal fluid (%)
// return numeric value only (unit: %, not printed)

Ask: Which value of % degradation of peptides in 24 h when incubated with simulated intestinal fluid has been reported for CCCC[C@H](NC(=O)C(C)(Cc1ccccc1F)NC(=O)[C@H](CCC(N)=O)NC(=O)[C@@H](NC(=O)[C@H](CCC(=O)O)NC(=O)C1(NC(=O)[C@@H](NC(=O)C2(N)CCCC2)C(C)C)CCCC1)[C@@H](C)CC)C(=O)N[C@@H](Cc1c[nH]cn1)C(=O)N[C@@H](CCC(N)=O)C(=O)N[C@@H](CCCCNC(=N)N)C(=O)N1CCCC1(C)C(=O)N[C@@H](CCCCN)C(=O)NC(C)(Cc1c(F)cccc1F)C(N)=O (some centres unmarked) [Seq. ID. 100] (H-[Ac5c]V[Ac5c]EIQ[ξαMePhe(2-F)][Nle]HQ[hArg][ξαMeP]K[ξαMePhe(2,6-F2)]-NH2) in the records?
Result: 00

Ask: Any idea what % degradation of peptides in 24 h when incubated with simulated intestinal fluid was measured for CCCC[C@H](NC(=O)C(C)(Cc1ccccc1F)NC(=O)[C@H](CCC(N)=O)NC(=O)[C@@H](NC(=O)[C@H](CCC(=O)O)NC(=O)C(C)(C)NC(=O)[C@@H](NC(=O)C(C)(C)N)C(C)C)[C@@H](C)CC)C(=O)N[C@@H](Cc1c[nH]cn1)C(=O)N[C@@H](CCC(N)=O)C(=O)N[C@@H](CCCCNC(=N)N)C(=O)N1CCCC1(C)C(=O)N[C@@H](CCCCN)C(=O)NC(C)(Cc1ccccc1)C(N)=O (some centres unmarked) [Seq. ID. 25] (H-[Aib]V[Aib]EIQ[ξαMePhe(2-F)][Nle]HQ[hArg][ξαMeP]K[ξαMeF]-NH2) ?
Result: 46
